Exercise: state measured solubility change mitosis (log2) for each of the sequences provided.
# Tested on: HeLa Kyoto
# method: solubility change mitosis vs G1/S (difference of NP-40 vs SDS log2 ratios) (log2 ratio difference); higher = more soluble in mitosis

Example sequences with recorded solubility change mitosis (log2):
>  <seq-string>
MGGFFSSIFSSLFGTREMRILILGLDGAGKTTILYRLQVGEVVTTIPTIGFNVETVTYKNLKFQVWDLGGQTSIRPYWRCYYSNTDAVIYVVDSCDRDRIGISKSELVAMLEEEELRKAILVVFANKQDMEQAMTSSEMANSLGLPALKDRKWQIFKTSATKGTGLDEAMEWLVETLKSRQ [ARL1]

>  <subject-of-test>
HeLa Kyoto

>  <test-result>
-0.202

$$$$
>  <seq-string>
MAGDVGGRSCTDSELLLHPELLSQEFLLLTLEQKNIAVETDVRVNKDSLTDLYVQHAIPLPQRDLPKNRWGKMMEKKREQHEIKNETKRSSTVDGLRKRPLIVFDGSSTSTSIKVKKTENGDNDRLKPPPQASFTSNAFRKLSNSSSSVSPLILSSNLPVNNKTEHNNNDAKQNHDLTHRKSPSGPVKSPPLSPVGTTPVKLKRAAPKEEAEAMNNLKPPQAKRKIQHVTWP [C2ORF49]

>  <subject-of-test>
HeLa Kyoto

>  <test-result>
0.015

$$$$
>  <seq-string>
MAQFVRNLVEKTPALVNAAVTYSKPRLATFWYYAKVELVPPTPAEIPRAIQSLKKIVNSAQTGSFKQLTVKEAVLNGLVATEVLMWFYVGEIIGKRGIIGYDV [ATP5L]

>  <subject-of-test>
HeLa Kyoto

>  <test-result>
0.0203

$$$$

Next sequence, please.
Query: Given the sequence MGSRDHLFKVLVVGDAAVGKTSLVQRYSQDSFSKHYKSTVGVDFALKVLQWSDYEIVRLQLWDIAGQERFTSMTRLYYRDASACVIMFDVTNATTFSNSQRWKQDLDSKLTLPNGEPVPCLLLANKCDLSPWAVSRDQIDRFSKENGFTGWTETSVKENKNINEAMRVLIEKMMRNSTEDIMSLSTQGDYINLQTKSSSWSCC [RAB29] , what is its reported solubility change mitosis (log2)?
Result: -0.119

###

# Test system: HeLa Kyoto
# method: thermal stability score vs G1/S (z-score of summed log2 fold changes over temperatures); higher = more thermally stable than in G1/S
# measurement-parameters: cell cycle stage: mitosis
measurement-label: thermal stability score
Give bare numbers.

Example sequences with recorded thermal stability score:
>  <seq-string>
MSGPRPVVLSGPSGAGKSTLLKRLLQEHSGIFGFSVSHTTRNPRPGEENGKDYYFVTREVMQRDIAAGDFIEHAEFSGNLYGTSKVAVQAVQAMNRICVLDVDLQGVRNIKATDLRPIYISVQPPSLHVLEQRLRQRNTETEESLVKRLAAAQADMESSKEPGLFDVVIINDSLDQAYAELKEALSEEIKKAQRTGA [GUK1]

>  <test-result>
-0.804

$$$$
>  <seq-string>
MAGPAWISKVSRLLGAFHNPKQVTRGFTGGVQTVTLIPGDGIGPEISAAVMKIFDAAKAPIQWEERNVTAIQGPGGKWMIPSEAKESMDKNKMGLKGPLKTPIAAGHPSMNLLLRKTFDLYANVRPCVSIEGYKTPYTDVNIVTIRENTEGEYSGIEHVIVDGVVQSIKLITEGASKRIAEFAFEYARNNHRSNVTAVHKANIMRMSDGLFLQKCREVAESCKDIKFNEMYLDTVCLNMVQDPSQFDVLVMPNLYGDILSDLCAGLIGGLGVTPSGNIGANGVAIFESVHGTAPDIAGKDMANPTALLLSAVMMLRHMGLFDHAARIEAACFATIKDGKSLTKDLGGNAKCSDFTEEICRRVKDLD [IDH3A]

>  <test-result>
-1.18

$$$$
>  <seq-string>
MDLLQFLAFLFVLLLSGMGATGTLRTSLDPSLEIYKKMFEVKRREQLLALKNLAQLNDIHQQYKILDVMLKGLFKVLEDSRTVLTAADVLPDGPFPQDEKLKDAFSHVVENTAFFGDVVLRFPRIVHYYFDHNSNWNLLIRWGISFCNQTGVFNQGPHSPILSLMAQELGISEKDSNFQNPFKIDRTEFIPSTDPFQKALREEEKRRKKEEKRKEIRKGPRISRSQSEL [CCDC134]

>  <test-result>
1.3

$$$$
>  <seq-string>
MAPKFPDSVEELRAAGNESFRNGQYAEASALYGRALRVLQAQGSSDPEEESVLYSNRAACHLKDGNCRDCIKDCTSALALVPFSIKPLLRRASAYEALEKYPMAYVDYKTVLQIDDNVTSAVEGINRMTRALMDSLGPEWRLKLPSIPLVPVSAQKRWNSLPSENHKEMAKSKSKETTATKNRVPSAGDVEKARVLKEEGNELVKKGNHKKAIEKYSESLLCSNLESATYSNRALCYLVLKQYTEAVKDCTEALKLDGKNVKAFYRRAQAHKALKDYKSSFADISNLLQIEPRNGPAQKLRQEVKQNLH [TOMM34]

>  <test-result>
1.04

$$$$
>  <seq-string>
MVGVKPVGSDPDFQPELSGAGSRLAVVKFTMRGCGPCLRIAPAFSSMSNKYPQAVFLEVDVHQCQGTAATNNISATPTFLFFRNKVRIDQYQGADAVGLEEKIKQHLENDPGSNEDTDIPKGYMDLMPFINKAGCECLNESDEHGFDNCLRKDTTFLESDCDEQLLITVAFNQPVKLYSMKFQGPDNGQGPKYVKIFINLPRSMDFEEAERSEPTQALELTEDDIKEDGIVPLRYVKFQNVNSVTIFVQSNQGEEETTRISYFTFIGTPVQATNMNDFKRVVGKKGESH [TXNL1]

>  <test-result>
-0.0973

$$$$

// input: 4 sequences below; output: thermal stability score for each
1. MATRRLTDAFLLLRNNSIQNRQLLAEQVSSHITSSPLHSRSIAAELDELADDRMALVSGISLDPEAAIGVTKRPPPKWVDGVDEIQYDVGRIKQKMKELASLHDKHLNRPTLDDSSEEEHAIEITTQEITQLFHRCQRAVQALPSRARACSEQEGRLLGNVVASLAQALQELSTSFRHAQSGYLKRMKNREERSQHFFDTSVPLMDDGDDNTLYHRGFTEDQLVLVEQNTLMVEEREREIRQIVQSISDLNEIFRDLGAMIVEQGTVLDRIDYNVEQSCIKTEDGLKQLHKAEQYQKKNRKMLVILILFVIIIVLIVVLVGVKSR [STX16]
2. MDKQNSQMNASHPETNLPVGYPPQYPPTAFQGPPGYSGYPGPQVSYPPPPAGHSGPGPAGFPVPNQPVYNQPVYNQPVGAAGVPWMPAPQPPLNCPPGLEYLSQIDQILIHQQIELLEVLTGFETNNKYEIKNSFGQRVYFAAEDTDCCTRNCCGPSRPFTLRIIDNMGQEVITLERPLRCSSCCCPCCLQEIEIQAPPGVPIGYVIQTWHPCLPKFTIQNEKREDVLKISGPCVVCSCCGDVDFEIKSLDEQCVVGKISKHWTGILREAFTDADNFGIQFPLDLDVKMKAVMIGACFLIDFMFFESTGSQEQKSGVW [PLSCR1]
3. MNAEPERKFGVVVVGVGRAGSVRMRDLRNPHPSSAFLNLIGFVSRRELGSIDGVQQISLEDALSSQEVEVAYICSESSSHEDYIRQFLNAGKHVLVEYPMTLSLAAAQELWELAEQKGKVLHEEHVELLMEEFAFLKKEVVGKDLLKGSLLFTAGPLEEERFGFPAFSGISRLTWLVSLFGELSLVSATLEERKEDQYMKMTVCLETEKKSPLSWIEEKGPGLKRNRYLSFHFKSGSLENVPNVGVNKNIFLKDQNIFVQKLLGQFSEKELAAEKKRILHCLGLAEEIQKYCCSRK [BLVRA]
4. MSASVVSVISRFLEEYLSSTPQRLKLLDAYLLYILLTGALQFGYCLLVGTFPFNSFLSGFISCVGSFILAVCLRIQINPQNKADFQGISPERAFADFLFASTILHLVVMNFVG [DAD1]

Result:
1: -0.879; 2: -1.61; 3: -0.397; 4: -0.552

###

# Test system: HeLa Kyoto
# method: solubility in G1/S (NP-40 vs SDS abundance) (log2 ratio); higher = more soluble
# measurement-parameters: cell cycle stage: G1/S
// no strictly below 0.008 in solubility in G1/S (log2); yes otherwise

>  <seq-string>
MADVEDGEETCALASHSGSSGSKSGGDKMFSLKKWNAVAMWSWDVECDTCAICRVQVMDACLRCQAENKQEDCVVVWGECNHSFHNCCMSLWVKQNNRCPLCQQDWVVQRIGK [RNF7]

>  <group>
no

$$$$
>  <seq-string>
MAAAAGRSLLLLLSSRGGGGGGAGGCGALTAGCFPGLGVSRHRQQQHHRTVHQRIASWQNLGAVYCSTVVPSDDVTVVYQNGLPVISVRLPSRRERCQFTLKPISDSVGVFLRQLQEEDRGIDRVAIYSPDGVRVAASTGIDLLLLDDFKLVINDLTYHVRPPKRDLLSHENAATLNDVKTLVQQLYTTLCIEQHQLNKERELIERLEDLKEQLAPLEKVRIEISRKAEKRTTLVLWGGLAYMATQFGILARLTWWEYSWDIMEPVTYFITYGSAMAMYAYFVMTRQEYVYPEARDRQYLLFFHKGAKKSRFDLEKYNQLKDAIAQAEMDLKRLRDPLQVHLPLRQIGEKD [MCU]

>  <group>
yes

$$$$
>  <seq-string>
MASSDLEQLCSHVNEKIGNIKKTLSLRNCGQEPTLKTVLNKIGDEIIVINELLNKLELEIQYQEQTNNSLKELCESLEEDYKDIEHLKENVPSHLPQVTVTQSCVKGSDLDPEEPIKVEEPEPVKKPPKEQRSIKEMPFITCDEFNGVPSYMKSRLTYNQINDVIKEINKAVISKYKILHQPKKSMNSVTRNLYHRFIDEETKDTKGRYFIVEADIKEFTTLKADKKFHVLLNILRHCRRLSEVRGGGLTRYVIT [SKA1]

>  <group>
yes

$$$$
>  <seq-string>
MQGSTRRMGVMTDVHRRFLQLLMTHGVLEEWDVKRLQTHCYKVHDRNATVDKLEDFINNINSVLESLYIEIKRGVTEDDGRPIYALVNLATTSISKMATDFAENELDLFRKALELIIDSETGFASSTNILNLVDQLKGKKMRKKEAEQVLQKFVQNKWLIEKEGEFTLHGRAILEMEQYIRETYPDAVKICNICHSLLIQGQSCETCGIRMHLPCVAKYFQSNAEPRCPHCNDYWPHEIPKVFDPEKERESGVLKSNKKSLRSRQH [NSMCE1]

>  <group>
yes

$$$$
>  <seq-string>
MAAVQMDPELAKRLFFEGATVVILNMPKGTEFGIDYNSWEVGPKFRGVKMIPPGIHFLHYSSVDKANPKEVGPRMGFFLSLHQRGLTVLRWSTLREEVDLSPAPESEVEAMRANLQELDQFLGPYPYATLKKWISLTNFISEATVEKLQPENRQICAFSDVLPVLSMKHTKDRVGQNLPRCGIECKSYQEGLARLPEMKPRAGTEIRFSELPTQMFPEGATPAEITKHSMDLSYALETVLNKQFPSSPQDVLGELQFAFVCFLLGNVYEAFEHWKRLLNLLCRSEAAMMKHHTLYINLISILYHQLGEIPADFFVDIVSQDNFLTSTLQVFFSSACSIAVDATLRKKAEKFQAHLTKKFRWDFAAEPEDCAPVVVELPEGIEMG [AAR2]

>  <group>
yes

$$$$

Now examine the next entry.
Query: Check the entry MTKIKADPDGPEAQAEACSGERTYQELLVNQNPIAQPLASRRLTRKLYKCIKKAVKQKQIRRGVKEVQKFVNKGEKGIMVLAGDTLPIEVYCHLPVMCEDRNLPYVYIPSKTDLGAAAGSKRPTCVIMVKPHEEYQEAYDECLEEVQSLPLPL [NHP2] : does solubility in G1/S (log2) equal or exceed 0.008?
Result: no
